The measured values listed here are drawn from patent US11173151B2.

Target: human V1a receptor (Homo sapiens, UniProt P37288)
Sequence (P37288 whole entry): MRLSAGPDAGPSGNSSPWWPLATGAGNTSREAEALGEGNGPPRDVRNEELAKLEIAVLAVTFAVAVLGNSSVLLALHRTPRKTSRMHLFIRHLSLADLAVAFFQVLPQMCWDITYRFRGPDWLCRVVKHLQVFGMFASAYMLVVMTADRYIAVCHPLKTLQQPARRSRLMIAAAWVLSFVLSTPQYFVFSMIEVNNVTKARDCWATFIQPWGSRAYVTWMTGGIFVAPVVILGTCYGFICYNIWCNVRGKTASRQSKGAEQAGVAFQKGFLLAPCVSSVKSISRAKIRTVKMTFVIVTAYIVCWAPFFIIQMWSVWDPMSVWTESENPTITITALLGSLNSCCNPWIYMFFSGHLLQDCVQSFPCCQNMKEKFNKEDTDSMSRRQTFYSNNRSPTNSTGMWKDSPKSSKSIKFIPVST
Test: Cellular in vitro assay for determining vasopressin receptor activity, V1a receptor cell line (CHO, aequorin luminescence)
Conditions: CHO cell line transfected with human V1a receptor; [Arg]-vasopressin at EC50 concentration; read-out: IC50 hV1a
endpoint_name: IC50 (nM)

Known IC50 results, listed for orientation:
CC1(C)CN(c2ccncc2-n2cnc(Cn3nc(-c4ccc(Cl)cc4)n(C[C@H](O)C(F)(F)F)c3=O)n2)CCN1 | 278
O=C(Nc1ccncc1-n1cnc(Cn2nc(-c3ccc(Cl)cc3)n(C[C@H](O)C(F)(F)F)c2=O)n1)[C@@H]1C[C@@H]1F [Example 34] | 13.5
O=C(NCc1cccc(F)c1F)c1ccccc1-n1cnc(Cn2nc(-c3ccc(Cl)cc3)n(C[C@H](O)C(F)(F)F)c2=O)n1 | 8.35

[A] NC(=O)[C@@H]1CC(F)(F)CN1C(=O)c1cccc(Cl)c1-n1cnc(Cn2nc(-c3ccc(Cl)cc3)n(C[C@@H](O)C(F)(F)F)c2=O)n1
[B] O=C(c1cccc(Cl)c1-n1cnc(Cn2nc(-c3ccc(Cl)cc3)n(C[C@H](O)C(F)(F)F)c2=O)n1)N1CCC[C@H]1C(F)(F)F
Lookup: Please indicate which item has the smaller measured IC50: A versus B Return value: the label identifying the chosen record.
Found: A
(A: 301 nM, B: 435 nM)

---

Molecular target: human V2 receptor (Homo sapiens, UniProt P30518)
Construct: expressed in transfected cells; host or cells: CHO K1 (ATCC) expressing firefly luciferase under a CRE-responsive promoter
Sequence (P30518 whole entry): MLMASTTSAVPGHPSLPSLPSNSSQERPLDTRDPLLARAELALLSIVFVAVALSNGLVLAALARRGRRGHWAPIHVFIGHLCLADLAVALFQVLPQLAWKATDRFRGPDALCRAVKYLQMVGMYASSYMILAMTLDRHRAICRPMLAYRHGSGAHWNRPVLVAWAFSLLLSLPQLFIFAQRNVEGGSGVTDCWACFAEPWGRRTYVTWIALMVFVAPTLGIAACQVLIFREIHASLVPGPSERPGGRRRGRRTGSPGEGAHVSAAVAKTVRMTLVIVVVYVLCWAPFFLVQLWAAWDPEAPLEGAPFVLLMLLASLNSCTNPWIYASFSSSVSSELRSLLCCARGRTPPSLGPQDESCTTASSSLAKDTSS
Assay: Cellular in vitro assay for determining vasopressin receptor activity, V2 receptor cell line (CHO, CRE-luciferase)
Type: cell-based
Conditions: CHO cell line transfected with human V2 receptor; [Arg8]-vasopressin at EC50 concentration, 3 hours; read-out: IC50 hV2
pIC50: −log10 of the molar value.
endpoint_name: pIC50

CC1CCCN(C(=O)c2ccccc2-n2cnc(Cn3nc(-c4ccc(Cl)cc4)n(C[C@H](O)C(F)(F)F)c3=O)n2)C1 (mixture of isomers) [Example 351] | 6.02

[a] O=C(NC1CCCCCC1)c1ccccc1-n1cnc(Cn2nc(-c3ccc(Cl)cc3)n(C[C@H](O)C(F)(F)F)c2=O)n1 [Example 342]
[b] NC(CNC(=O)c1ccccc1-n1cnc(Cn2nc(-c3ccc(Cl)cc3)n(C[C@H](O)C(F)(F)F)c2=O)n1)C(F)(F)C(F)F (mixture of isomers) [Example 196]
Lookup: Please indicate which item has the smaller measured pIC50: a versus b Return value: the label identifying the chosen record.
Found: b

---

Target: human V2 receptor (Homo sapiens)
Construct: expressed in transfected cells; host or cells: CHO K1 (ATCC) expressing firefly luciferase under a CRE-responsive promoter
Experiment: Cellular in vitro assay for determining vasopressin receptor activity, V2 receptor cell line (CHO, CRE-luciferase)
Type: cell-based
Settings: CHO cell line transfected with human V2 receptor; [Arg8]-vasopressin at EC50 concentration; read-out: IC50 hV2
endpoint_name: IC50 (µM)

[A] O=C(NCC(O)C(F)(F)F)c1ncccc1-n1cnc(Cn2nc(-c3ccc(Cl)cc3)n(C[C@H](O)C(F)(F)F)c2=O)n1 (mixture of isomers)
[B] O=C(c1ncccc1-n1cnc(Cn2nc(-c3ccc(Cl)cc3)n(C[C@H](O)C(F)(F)F)c2=O)n1)N1CCS(=O)(=O)CC1
Lookup: So which one has the bigger IC50 here, A or B ? Return value: the label identifying the chosen record.
Found: B
(B: 5.9 µM, A: 0.71 µM)

[I] CC1(C)CNCCN1C(=O)c1ncccc1-n1cnc(Cn2nc(-c3ccc(Cl)cc3)n(C[C@H](O)C(F)(F)F)c2=O)n1
[II] O=C(NCCC(F)(F)F)c1cccc(C(F)(F)F)c1-n1cnc(Cn2nc(-c3ccc(Cl)cc3)n(C[C@H](O)C(F)(F)F)c2=O)n1
[III] CC(C)(N)CNC(=O)c1cc(F)ccc1-n1cnc(Cn2nc(-c3ccc(Cl)cc3)n(C[C@H](O)C(F)(F)F)c2=O)n1
[IV] COCC1CCCN1C(=O)c1ccncc1-n1nc(Cn2nc(-c3ccc(Cl)cc3)n(C[C@H](O)C(F)(F)F)c2=O)nc1C(=O)N1CCS(=O)(=O)CC1 (mixture of isomers)
Lookup: Arrange the 4 molecules by rising IC50, starting with the smallest. Thanks in advance for listing the labels in the requested order.
Found: II, III, IV, I
